# Test system: MDA-MB-468 breast
# method.description: NCI tumour cell line growth inhibition, 48 h
Recorded measurements of TGI, one per entry
Please state the figure in µM; there is no need to write the unit.

Consider the worked cases shown below.
- smiles.data: "CCCCC[C@H]1C/C=C2/C(=O)C=C[C@@H]2C/C=C\\CCCC(=O)O1"
  observed.measurement: 0.577
- smiles.data: "CC(=O)c1nc(-c2ccc(C[C@@H](CNC(=O)CN(C)C)NC(=O)c3ccc(OC(C)C)c(Cl)c3)cc2)cn1C"
  observed.measurement: 14.3
- smiles.data: "COc1ccc(CN2c3ccccc3Sc3ccccc32)cc1O"
  observed.measurement: 12.3
- smiles.data: "COc1ccc2c(c1)[n+](=O)c(/C=C/C(=O)c1cc(OC)c(OC)c(OC)c1)c(C)n2[O-]"
  observed.measurement: 18
- smiles.data: "CCN(CC)c1ccc(/C=N/N=C(N)N)cc1"
  observed.measurement: 6.61

Fill in: TGI of Cc1cc(C)c(-c2c(O)c(Br)c(-c3c(C)cc(C)c(Br)c3C)c(O)c2Br)c(C)c1Br is ___
11.1

Then COc1ccc(N=c2nc3sc4cc(Cl)ccc4n3c(N)c2C#N)cc1 ?
19.7

Then COc1ccc(/C=C(\C#N)c2cc(OC)c(OC)c(OC)c2)cc1 ?
2.52

---

# Test system: MDA-MB-468 breast
# method.description: NCI tumour cell line growth inhibition, 48 h; in the data active means GI50 below about 0.43 µM; inactive means the rest
Respond only with the outcome that fits, drawn from t (active), f (inactive)

Use these answered entries as a reference point.
- compound: "COc1ccc(C2=NNC(c3sc(Cl)nc3Cl)C2)cc1 (centres undefined)"
  system.name: "MDA-MB-468 breast"
  class.assignment: "f"
- compound: "Fc1ccc(-c2ncn(C3CCNCC3)c2-c2ccnc(Oc3ccc(Cl)cc3)n2)cc1"
  system.name: "MDA-MB-468 breast"
  class.assignment: "f"
- compound: "O=C(O)C(Cc1ccccc1)N1C(=O)/C(=C/C(Cl)=C/c2ccc([N+](=O)[O-])cc2)SC1=S (centres undefined)"
  system.name: "MDA-MB-468 breast"
  class.assignment: "f"
- compound: "COc1cc(C2CC(c3ccc(Cl)cc3)=NN2C(C)=O)ccc1Oc1ccnc2cc(Cl)ccc12 (centres undefined)"
  system.name: "MDA-MB-468 breast"
  class.assignment: "f"
- compound: "CCN(CC)c1ccc(/C=N/N=C(N)N)cc1"
  system.name: "MDA-MB-468 breast"
  class.assignment: "f"
- compound: "CCCCS(=O)(=O)c1cc(Nc2ccc(O)c3c2C(=O)c2ccccc2C3=O)ccc1C"
  system.name: "MDA-MB-468 breast"
  class.assignment: "f"
- compound: "CCOC(=O)c1sc(NC(=O)COc2ccc(/C=C3\\CCc4cc(OC)ccc4C3=O)cc2)nc1C"
  system.name: "MDA-MB-468 breast"
  class.assignment: "f"
- compound: "C=C1C(=O)O[C@@H]2C[C@@H](C)[C@@H]3C=CC(=O)[C@@]3(C)[C@@H](OC(=O)CCCC(=O)O[C@H]3[C@@H]4C(=C)C(=O)O[C@@H]4C[C@@H](C)[C@@H]4C=CC(=O)[C@]43C)[C@H]12"
  system.name: "MDA-MB-468 breast"
  class.assignment: "t"

Here is another compound to look at.
GET /call?item= CCCCC[C@H]1C/C=C2/C(=O)C=C[C@@H]2C/C=C\CCCC(=O)O1 returns the recorded outcome of this test.
t
